Data provenance is paper PMC6154636.

# test-method-notes: Stability of the seven analytes in rat plasma (method validation)
# Type: in vitro ADME
# test-settings: three freeze–thaw cycles, medium QC level (1.50, 3.50 or 15.0 ng/mL), n = 6
Use 1 when the recorded Freeze-Thaw RSD is no lower than 3%; use 0 when it is lower.

# check: Freeze-Thaw RSD of COc1ccc(-c2coc3cc(O)ccc3c2=O)cc1O [Calycosin] is greater than or equal to 3%
1

Tell me whether Freeze-Thaw RSD is at least 3% here: COc1ccc(-c2coc3cc(O)ccc3c2=O)cc1 [Formononetin]
1

Check this compound for Freeze-Thaw RSD at or above 3%: COc1c2c(cc3oc(C)cc(=O)c13)OC(C(C)(C)OC1OC(CO)C(O)C(O)C1O)C2 [4-O-beta-D-glucosyl-5-O-methylvisamminol]
0

Quick check: does CC(C)(O)C1CCC(C)(C2C(O)CC3(C)C4CC(OC5OC(CO)C(O)C(O)C5O)C5C(C)(C)C(OC6OCC(O)C(O)C6O)CCC56CC46CCC23C)O1 (centres unmarked) [Astragaloside] have Freeze-Thaw RSD greater than or equal to 3%?
1

API: above_or_equal(metric=Freeze-Thaw RSD, cutoff=3%) for item Cc1cc(=O)c2c(O)c3c(cc2o1)OC(C)(C)[C@@H](O[C@@H]1O[C@H](CO)[C@@H](O)[C@H](O)[C@H]1O)C3 [Sec-O-Glucosylhamaudol]
1

* * *

Record form. Attribute: Tmax. Fill in for each entry.
# test-method-notes: Pharmacokinetic study in rats after oral administration of mix standard solution (UPLC-QqQ-MS of plasma)
# Assay type: in vivo, Sprague-Dawley rats
# test-settings: male, Sprague-Dawley, rat, in vivo, po, 10 mg/kg
I'd appreciate it if you wrote the number followed by its unit.

Record C=C1CCC[C@]2(C)C[C@@H]3OC(=O)C(C)=C3C[C@@H]12 [Atractylenolide II] , field Tmax: 6 min

Entry COc1c2c(cc3oc(C)cc(=O)c13)OC(C(C)(C)OC1OC(CO)C(O)C(O)C1O)C2 (stereo not drawn) , Tmax reported as 12 min

Entry COc1ccc(-c2coc3cc(O)ccc3c2=O)cc1O , Tmax reported as 18 min

* * *

# test-method-notes: Stability of the seven analytes in rat plasma (method validation)
# Type: in vitro ADME
# test-settings: −20 °C for 30 days, high QC level (80.0 or 150 ng/mL), n = 6
Give Long-Term RSD for every item shown.
Give just the number in %; leave the unit off.

Per the record, COc1ccc(-c2coc3cc(O)ccc3c2=O)cc1 [Formononetin] has Long-Term RSD of 6.22

Per the record, COc1ccc(-c2coc3cc(O)ccc3c2=O)cc1O [Calycosin] has Long-Term RSD of 12.67

The compound listed as CC(C)(O)C1CCC(C)(C2C(O)CC3(C)C4CC(OC5OC(CO)C(O)C(O)C5O)C5C(C)(C)C(OC6OCC(O)C(O)C6O)CCC56CC46CCC23C)O1 (centres unmarked) [Astragaloside] has a reported Long-Term RSD of 2.80

The compound identified as Cc1cc(=O)c2c(O)c3c(cc2o1)OC(C)(C)[C@@H](O[C@@H]1O[C@H](CO)[C@@H](O)[C@H](O)[C@H]1O)C3 [Sec-O-Glucosylhamaudol] registered its Long-Term RSD at 1.46

get_value(item= COc1c2c(cc3oc(C)cc(=O)c13)OC(C(C)(C)OC1OC(CO)C(O)C(O)C1O)C2 [4-O-beta-D-glucosyl-5-O-methylvisamminol] , readout=Long-Term RSD) returns 2.41

* * *

# test-method-notes: Stability of the seven analytes in rat plasma (method validation)
# Type: in vitro ADME
# test-settings: auto-sampler vials for 24 h, high QC level (80.0 or 150 ng/mL), n = 6
Assign Short-Term RSD to each entry below.
The reply should contain only the number, in %.

// Short-Term RSD value for COc1ccc(-c2coc3cc(O)ccc3c2=O)cc1O : 4.38

Record COc1ccc(-c2coc3cc(O)ccc3c2=O)cc1 . Reported Short-Term RSD: 2.82

The value of Short-Term RSD measured for the molecule Cc1cc(=O)c2c(O)c3c(cc2o1)OC(C)(C)[C@@H](O[C@@H]1O[C@H](CO)[C@@H](O)[C@H](O)[C@H]1O)C3 turned out to be 1.01

Consider COc1c2c(cc3oc(C)cc(=O)c13)OC(C(C)(C)OC1OC(CO)C(O)C(O)C1O)C2 (centres unmarked) . Its measured Short-Term RSD is 1.02

# Short-Term RSD (molecule: CC(C)(O)C1CCC(C)(C2C(O)CC3(C)C4CC(OC5OC(CO)C(O)C(O)C5O)C5C(C)(C)C(OC6OCC(O)C(O)C6O)CCC56CC46CCC23C)O1 (centres unmarked) [Astragaloside] ) is 1.45

* * *

# test-method-notes: Pharmacokinetic study in rats after oral administration of mix standard solution (UPLC-QqQ-MS of plasma)
# Format: in vivo, Sprague-Dawley rats
# test-settings: male, Sprague-Dawley, rat, in vivo; rats, oral 10 mg/kg mix standard in 0.5% CMC-Na, n = 6, Mean ± S.D.; read-out: CL/F (converted)
Can you tell me CL/F for the items I'm about to list?
Respond numerically; units are mL/min/kg and should not be typed.

Documented CL/F of COc1ccc(-c2coc3cc(O)ccc3c2=O)cc1 : 1530

The compound identified as CC(C)(O)C1CCC(C)(C2C(O)CC3(C)C4CC(OC5OC(CO)C(O)C(O)C5O)C5C(C)(C)C(OC6OCC(O)C(O)C6O)CCC56CC46CCC23C)O1 (centres unmarked) [Astragaloside] registered its CL/F at 832

* * *

# test-method-notes: Pharmacokinetic study in rats after oral administration of mix standard solution (UPLC-QqQ-MS of plasma)
# Format: in vivo, Sprague-Dawley rats
# test-settings: male, Sprague-Dawley, rat, in vivo, po, 10 mg/kg
Exercise: state measured Cmax for each of the compounds provided.
Answer with a number only, understood to be in ng/mL.

Recorded Cmax (compound COc1c2c(cc3oc(C)cc(=O)c13)OC(C(C)(C)OC1OC(CO)C(O)C(O)C1O)C2 [4-O-beta-D-glucosyl-5-O-methylvisamminol] ): 50

// C=C1CCC[C@]2(C)C[C@@H]3OC(=O)C(C)=C3C[C@@H]12 [Atractylenolide II] : Cmax value = 8.4

Entry COc1ccc(-c2coc3cc(O)ccc3c2=O)cc1O [Calycosin] ; Cmax = 6.3

* * *

# test-method-notes: Pharmacokinetic study in rats after oral administration of mix standard solution (UPLC-QqQ-MS of plasma)
# Type: in vivo, Sprague-Dawley rats
# test-settings: male, Sprague-Dawley, rat, in vivo, po, 10 mg/kg
# Description: Then, 300 μL acetonitrile for protein precipitation were added. For the incurred samples, 10 µL of methanol (volume of the corresponding standard solution for calibration curve) and 90 μL of samples with 300 μL acetonitrile were mixed, the mixture was then vortex-extracted for 2 min, and centrifuged for 10 min at 15,000 rpm (4 °C). The supernatant was transferred to a new tube and evaporated under a gentle stream of nitrogen to dryness. […]
experimental-endpoint: CL/F (mL/min/kg)
Write the number in mL/min/kg without appending the unit.

Form field CL/F, entry C=C1CCC[C@]2(C)C[C@@H]3OC(=O)C(C)=C3C[C@@H]12 [Atractylenolide II] : 9820

Input COc1c2c(cc3oc(C)cc(=O)c13)OC(C(C)(C)OC1OC(CO)C(O)C(O)C1O)C2 (stereo not drawn) . Output CL/F: 2810

Note to self: CL/F recorded for COc1ccc(-c2coc3cc(O)ccc3c2=O)cc1O was 8330

* * *

# test-method-notes: Stability of the seven analytes in rat plasma (method validation)
# Format: in vitro ADME
# test-settings: −20 °C for 30 days, low QC level (0.25, 0.50 or 1.50 ng/mL), n = 6
experimental-endpoint: Long-Term RSD (%)
Answer format: numeric, % implied, no suffix.

Recorded result, CC(C)(O)C1CCC(C)(C2C(O)CC3(C)C4CC(OC5OC(CO)C(O)C(O)C5O)C5C(C)(C)C(OC6OCC(O)C(O)C6O)CCC56CC46CCC23C)O1 (centres unmarked) [Astragaloside] , Long-Term RSD: 3.36

The compound COc1c2c(cc3oc(C)cc(=O)c13)OC(C(C)(C)OC1OC(CO)C(O)C(O)C1O)C2 (centres unmarked) showed Long-Term RSD equal to 3.99

The recorded Long-Term RSD for entry Cc1cc(=O)c2c(O)c3c(cc2o1)OC(C)(C)[C@@H](O[C@@H]1O[C@H](CO)[C@@H](O)[C@H](O)[C@H]1O)C3 equals 3.70

Summary for this compound, COc1ccc(-c2coc3cc(O)ccc3c2=O)cc1 : Long-Term RSD is 5.96

compound COc1ccc(-c2coc3cc(O)ccc3c2=O)cc1O , Long-Term RSD observed: 4.13

* * *

Please provide measured half-life for the entries that follow.
# test-method-notes: Pharmacokinetic study in rats after oral administration of mix standard solution (UPLC-QqQ-MS of plasma)
# Format: in vivo, Sprague-Dawley rats
# test-settings: male, Sprague-Dawley, rat, in vivo; rats, oral 10 mg/kg mix standard in 0.5% CMC-Na, n = 6, Mean ± S.D.; read-out: T1/2β (converted)
# Method: Then, 300 μL acetonitrile for protein precipitation were added. For the incurred samples, 10 µL of methanol (volume of the corresponding standard solution for calibration curve) and 90 μL of samples with 300 μL acetonitrile were mixed, the mixture was then vortex-extracted for 2 min, and centrifuged for 10 min at 15,000 rpm (4 °C). The supernatant was transferred to a new tube and evaporated under a gentle stream of nitrogen to dryness. […]

Consider COc1ccc(-c2coc3cc(O)ccc3c2=O)cc1 [Formononetin] . Its measured half-life is 4.1 h

Lab note: CC(C)(O)C1CCC(C)(C2C(O)CC3(C)C4CC(OC5OC(CO)C(O)C(O)C5O)C5C(C)(C)C(OC6OCC(O)C(O)C6O)CCC56CC46CCC23C)O1 (centres unmarked) [Astragaloside] gave half-life of 2.06 h
